Reference source for all entries: ChEMBL document CHEMBL3868615

# Assayed System: Muscarinic acetylcholine receptor M3 (Homo sapiens, UniProt P20309)
# Sequence (P20309 whole entry): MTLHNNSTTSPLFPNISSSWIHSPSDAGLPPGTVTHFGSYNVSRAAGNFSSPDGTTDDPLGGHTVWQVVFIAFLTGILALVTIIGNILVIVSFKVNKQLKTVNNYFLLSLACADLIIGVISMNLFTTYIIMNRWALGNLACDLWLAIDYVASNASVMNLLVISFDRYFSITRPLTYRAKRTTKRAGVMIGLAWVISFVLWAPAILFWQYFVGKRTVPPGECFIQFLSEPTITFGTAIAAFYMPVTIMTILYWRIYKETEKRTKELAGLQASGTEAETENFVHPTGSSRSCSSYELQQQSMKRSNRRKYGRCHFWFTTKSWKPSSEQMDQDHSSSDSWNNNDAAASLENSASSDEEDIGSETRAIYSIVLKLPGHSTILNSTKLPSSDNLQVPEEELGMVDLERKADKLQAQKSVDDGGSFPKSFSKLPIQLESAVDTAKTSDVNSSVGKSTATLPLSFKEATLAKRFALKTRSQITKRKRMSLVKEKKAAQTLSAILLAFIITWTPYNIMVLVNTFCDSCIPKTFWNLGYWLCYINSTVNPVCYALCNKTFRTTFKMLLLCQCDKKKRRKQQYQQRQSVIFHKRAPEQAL
Measure Name: Ki (nM)
Give your result in nM as a bare value.

input: Field request: Ki | item: `CN1CC[C@H]2CC(=O)[C@H](Cc3ccccc3)[C@H]3CCC[C@@H]1[C@H]23`
output: 661

* * *

A short record of Ki observed with D(1B) dopamine receptor (Homo sapiens) follows.
Sequence (P21918 whole entry): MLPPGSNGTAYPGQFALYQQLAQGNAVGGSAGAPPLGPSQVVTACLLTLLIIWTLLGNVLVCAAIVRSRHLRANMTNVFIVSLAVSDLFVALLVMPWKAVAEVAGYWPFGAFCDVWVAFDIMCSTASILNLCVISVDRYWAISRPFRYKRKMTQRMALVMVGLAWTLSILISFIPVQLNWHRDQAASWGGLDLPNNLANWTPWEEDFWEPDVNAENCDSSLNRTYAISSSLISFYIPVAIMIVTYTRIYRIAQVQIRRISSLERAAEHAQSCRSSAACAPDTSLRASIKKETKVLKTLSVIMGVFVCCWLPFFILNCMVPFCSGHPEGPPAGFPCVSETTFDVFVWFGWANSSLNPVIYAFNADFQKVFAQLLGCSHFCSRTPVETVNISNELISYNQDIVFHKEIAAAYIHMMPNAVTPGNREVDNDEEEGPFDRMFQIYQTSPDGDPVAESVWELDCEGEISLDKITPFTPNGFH

[
  {
    "Structure Smiles": "CN1CC[C@H]2CC(=O)[C@H](Cc3ccccc3)[C@H]3CCC[C@@H]1[C@H]23",
    "Ki": "> 10 µM"
  }
]

Next molecule, please.
input: Field request: Ki | item: `CCCN1CC[C@H]2c3cc4ccc(C(F)(F)F)cc4nc3[C@H](CC)[C@H]3CCC[C@@H]1[C@@H]32`
output: > 10 µM

* * *

The molecules listed here are annotated with their pKi.
# Test Summary: Displacement of [3H]Muscimol from GABAA receptor in rat brain measured after 90 mins by microbeta scintillation counting method
# Format: tissue-based
pKi: −log10 of the molar value.

[
  {
    "Structure Smiles": "CCCN1CC[C@H]2c3cc4ccc(C(F)(F)F)cc4nc3[C@H](CC)[C@H]3CCC[C@@H]1[C@@H]32",
    "pKi": "< 5.00"
  }
]

Next molecule, please.
input: Field request: pKi | item: `CN1CC[C@H]2CC(=O)[C@H](Cc3ccccc3)[C@H]3CCC[C@@H]1[C@H]23`
output: < 5.00

* * *

# Test system: PC-12
# Test Summary: Selectivity ratio of Ki for sigma2 receptor in rat PC12 cells to Ki for guinea pig sigma1 receptor
# Assay type: cell-based
Measure Name: Ratio Ki
Kindly provide the number alone.

[
  {
    "Structure Smiles": "CCCN1CC[C@H]2CC3=Nc4ccccc4[C@]3(CC)[C@H]3CCC[C@@H]1[C@H]23",
    "Assayed System": "PC-12",
    "Measured Result": 10.9
  },
  {
    "Structure Smiles": "CCCN1CC[C@@H]2CC(=O)C[C@H]3CCC[C@H]1[C@H]32",
    "Assayed System": "PC-12",
    "Measured Result": 1.9
  },
  {
    "Structure Smiles": "COc1ccc(C[C@H]2C(=O)C[C@@H]3CCN(C)[C@@H]4CCC[C@H]2[C@@H]34)cc1",
    "Assayed System": "PC-12",
    "Measured Result": 50.2
  }
]

Next molecule, please.
input: Can you look up Ratio Ki on PC-12 for `CCCN1CC[C@H]2c3cc4ccccc4nc3[C@H](CC)[C@H]3CCC[C@@H]1[C@@H]32` ?
output: 0.4

* * *

# Tested on: PC-12
# Test Summary: Selectivity ratio of Ki for sigma2 receptor in rat PC12 cells to Ki for guinea pig sigma1 receptor
# Format: cell-based
The compounds listed here are annotated with their Ratio Ki.

[
  {
    "Structure Smiles": "CC[C@H]1C(=O)C[C@@H]2CCN(CCOC)[C@@H]3CCC[C@H]1[C@@H]23",
    "Ratio Ki": 16.3
  },
  {
    "Structure Smiles": "CC[C@H]1C(=O)C[C@@H]2CCN(CCC(C)C)[C@@H]3CCC[C@H]1[C@@H]23",
    "Ratio Ki": 1.5
  },
  {
    "Structure Smiles": "CCCN1CC[C@H]2c3cc4ccc(C(F)(F)F)cc4nc3[C@H](CC)[C@H]3CCC[C@@H]1[C@@H]32",
    "Ratio Ki": 0.04
  }
]

Next compound, please.
input: Field request: Ratio Ki | item: `CCCN1CC[C@H]2CC(=O)C[C@H]3CCC[C@@H]1[C@@H]32`
output: 1
